Where do these numbers come from? They come from patent US20110165066A1.

koff reference
biological target: T1, human IL-13 variant (R130Q) (human, UniProt P35225 35-146); assay: SPR (Biacore), mAb captured, IL-13 as analyte
T1 construct: called R110Q in the assay descriptions (mature numbering); also called h IL-13v; hIL-13v
T1 sequence (P35225 35-146 limits assumed, stated change not applied): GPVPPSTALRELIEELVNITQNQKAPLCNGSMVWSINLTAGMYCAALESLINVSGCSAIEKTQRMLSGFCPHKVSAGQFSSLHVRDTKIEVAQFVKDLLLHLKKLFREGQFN
Please reply with the bare figure in s⁻¹ and do not write the unit itself.

Sample records with koff:
binder	koff / s⁻¹
13C5 (antibody, V domains shown, also called murine 13C5) VH: QVTLKESGPGILQPSQTLSLTCSFSGFSLSTSDMGVDWIRQPSGKGLEWLAHIWWDDVKRYNPALKSRLTISKDTSSSQVFLMLASVDTADTATYYCARTVSSGYIYYAMDYWGQGTSVTVSS VL: DIQMTQTASSLSASLGDRVTISCRASQDIRNYLNWYQRKPDGTVKLLIFYTSKLHSGVPSRFSGSGSGTDYSLTIRNLEQEDIATYFCQQGNTLPLTFGGGTKLEIKR	4.35e-05
5D3 (antibody, V domains shown) VH: QVQLKESGPGLVAPSQSLSITCTVSGFSLTGYNINWVRQPPGKGLEWLGLIWGDGNTAFNSALKSRLSISKDNSKSQVFLKLNSLQTDDTARYYCARDGYYPYAIKYWGQGTSVTVSS VL: NIVLTQSPASLAVSLGQRATISCRASETVDSYGNSFMHWYQQKPGQPPKLLIYLASNLESGVPARFSGSGSRTDFTLTIDPVEADDAATYYCQQNNEDPRTFGGGTKLEIKR	0.000584

Now examine the next entry.
Request: Need koff, item 33C3 (antibody, V domains shown) VH: QVTLKESGPGILQPSQTLSLTCSFSGFSLSTSDLGVGWIRQPSGKGLEWLAHIWWDDVKRYNPALKSRLTISKDTSSSQVFLMIASVDTADTATYYCARIGSSGYIYYEMDYWGQGTSVTVSS VL: DIQMTQTTSSLSASLGDRVTITCRASQDIRNYLNWYQQKPDGTVKLLIYYTSRLHSGVPSRFSGSGSGTDYSLTISNLDQEDIATYFCQQGNTLPLTFGGGTRLEIKR
Response: 9.59e-05
